Tested on: gephE
Test name: µSPOT peptide microarray binding assay with recombinant gephE
Protocol conditions: µSPOT peptide microarray, GlyRβ full positional scan, recombinant gephE; intensity normalised to wild-type sequence DLRSNDFSIVGSLPR (=1)
Experimental endpoint: gephE Binding Intensity [norm.] (norm.)
Give the quantity in norm., number only.

Prompt: // gephE Binding Intensity [norm.] lookup, key: DKRSNDFSIVGSLPR [GlyRβ_Full_Positional_Scan_034]
Completion: 0.88

Prompt: Request: DLRSNDFSSVGSLPR [GlyRβ_Full_Positional_Scan_175, GlyR β 414-428 variant I422S]
Completion: 0.52

Prompt: Also check GLRSNDFSIVGSLPR [GlyRβ_Full_Positional_Scan_002]
Completion: 1.01

Prompt: Now consider KLRSNDFSIVGSLPR [GlyRβ_Full_Positional_Scan_014] .
Completion: 1.03

Prompt: Moving on to DLRSCDFSIVGSLPR [GlyRβ_Full_Positional_Scan_097]
Completion: 0.99
